Tested on: Splenocytes
Test: Immune-stimulating function of compounds alone (splenocytes in vitro)
Assay type: cell-based, mouse
Details: splenocytes treated with compound alone (FIG. 6)
Observation Type: IL-4 secretion

1. CCCCCCCCCCCCNC(=O)[C@H](CS[C@@H]1C(O)[C@@H](O)[C@H](O)C2COC(=O)N21)NC(=O)CCCCCCCCCCC (stereo partly drawn) [Compound 18]
not IL-4
2. CCCCCCCCCCCCNC(=O)C(COC1C(O)C(O)C(O)C2COC(=O)N21)NC(=O)CCCCCCCCCCC (stereo not drawn) [Compound 12]
not IL-4
3. CCCCCCCCCCCCCC(=O)N[C@@H](CS[C@@H]1C(O)[C@@H](O)[C@H](O)C2COC(=O)N21)C(=O)NCCCCCCCCCCCC (stereo partly drawn) [Compound 22]
not IL-4
